system: MCF7; assay: Anticancer activity against human MCF-7 cells assessed as cell growth inhibition measured after 48 hrs by MTT assay; type: functional, cell-based; conditions: MCF7, 48 h
measured_property: pIC50
Friendly reminder that pIC50 comes from taking -log10 of the concentration in mol/L.

Recorded pIC50 (compound COC(=O)c1c(-c2cc(O)c3c(c2)C(=O)c2cccc(O)c2C3=O)nn(-c2ccc(OC(F)(F)F)cc2)c1C(=O)OC ): 5.94

The measured pIC50 associated with CCOC(=O)c1c(-c2cc(O)c3c(c2)C(=O)c2cccc(O)c2C3=O)nn(-c2ccc(Cl)cc2)c1C(=O)OCC reads 5.40

// field: pIC50; key: CCOC(=O)c1c(-c2cc(O)c3c(c2)C(=O)c2cccc(O)c2C3=O)nn(-c2ccc(C(C)C)cc2)c1C(=O)OCC ; value = 6.06

Entry O=Cc1cc(O)c2c(c1)C(=O)c1cccc(O)c1C2=O ; pIC50 = 5.57

Recorded pIC50 (compound COC(=O)c1c(-c2cc(O)c3c(c2)C(=O)c2cccc(O)c2C3=O)nn(-c2ccc(C(C)C)cc2)c1C(=O)OC ): 5.57

Quick note, pIC50 for CCOC(=O)c1c(-c2cc(O)c3c(c2)C(=O)c2cccc(O)c2C3=O)nn(-c2ccc(OC)cc2)c1C(=O)OCC landed at 5.41

// pIC50 lookup, compound = CCOC(=O)c1c(-c2cc(O)c3c(c2)C(=O)c2cccc(O)c2C3=O)nn(-c2cccc(F)c2)c1C(=O)OCC , result: 5.14

According to the records, this compound O=C1c2cccc(O)c2C(=O)c2c(O)cc(CO)cc21 [ALOE-EMODIN] displays pIC50 of 5.38

What the record says about CCOC(=O)c1c(-c2cc(O)c3c(c2)C(=O)c2cccc(O)c2C3=O)nn(-c2ccc(Br)cc2)c1C(=O)OCC : pIC50 is 5.05

CCOC(=O)c1c(-c2cc(O)c3c(c2)C(=O)c2cccc(O)c2C3=O)nn(-c2ccc(C)c(C)c2)c1C(=O)OCC yielded pIC50 of 5.98

// pIC50 value for CCOC(=O)c1c(-c2cc(O)c3c(c2)C(=O)c2cccc(O)c2C3=O)nn(-c2ccccc2C)c1C(=O)OCC : 5.95

Recorded pIC50 (compound CCOC(=O)c1c(-c2cc(O)c3c(c2)C(=O)c2cccc(O)c2C3=O)nn(-c2ccc(OC(F)(F)F)cc2)c1C(=O)OCC ): 5.45

Given item COC(=O)c1c(-c2cc(O)c3c(c2)C(=O)c2cccc(O)c2C3=O)nn(-c2ccccc2)c1C(=O)OC , the value recorded as its pIC50 is 5.00

Looking up CCOC(=O)c1c(-c2cc(O)c3c(c2)C(=O)c2cccc(O)c2C3=O)nn(-c2ccccc2)c1C(=O)OCC , I found its pIC50 recorded as 5.50

Reported pIC50 of COC(=O)c1c(-c2cc(O)c3c(c2)C(=O)c2cccc(O)c2C3=O)nn(-c2ccc(C)cc2)c1C(=O)OC : 6.00

So for CCOC(=O)c1c(-c2cc(O)c3c(c2)C(=O)c2cccc(O)c2C3=O)nn(-c2cccc(C)c2)c1C(=O)OCC , the logged pIC50 turned out to be 5.20

Looking up CCOC(=O)c1c(-c2cc(O)c3c(c2)C(=O)c2cccc(O)c2C3=O)nn(-c2ccc(C#N)cc2)c1C(=O)OCC , I see its pIC50 listed as 5.34

What the record says about COC(=O)c1c(-c2cc(O)c3c(c2)C(=O)c2cccc(O)c2C3=O)nn(-c2ccccc2C)c1C(=O)OC : pIC50 is 5.33
